Tested on: DU-145 prostate
Protocol text: NCI-60 one-dose screen, 48 h
Details: 10 µM unless noted
Compounds without any hit were thinned out: in the full panel of roughly 83,000, 20% have a hit. Active and inactive are the calls of the source. Rule for the calls: active = growth percent below 10; inactive = the rest.
Your response should consist of one outcome taken from YES for active, NO for inactive

COc1ccc2[nH]cc(/C=C3\C(=O)Nc4ccccc43)c2c1 ... NO
CCCc1n(Cc2ccc3ccccc3n2)cc[n+]1Cc1ccc2ccccc2n1 ... NO
COc1cc2cc(C(=O)Nc3ccccc3)c(N)nc2cc1OC ... NO
O=C1CC2(O)CSc3nc(=O)cc(n32)N1 (stereo not drawn) ... NO
CCCCn1c(C)nc2cc(Nc3nc(Cl)nc4nc[nH]c34)ccc21 ... NO

Please share the test call associated with NCCCOc1cc2ccccc2cc1C(=O)NCCCOc1cc2ccccc2cc1C(=O)Nc1ccc(Cl)cc1O .
YES

Please share the test call associated with O=[N+]([O-])c1cccc(N=C(Nc2cccc([N+](=O)[O-])c2)c2ccccc2)c1 .
NO
